biological target: human κ opioid receptors (Homo sapiens); test: Opioid receptor function test (Lance Ultra cAMP kit, agonist activity); settings: CHO cells expressing human κ opioid receptors, 10 μM forskolin, 30 minutes
Sequence (P41145 whole entry): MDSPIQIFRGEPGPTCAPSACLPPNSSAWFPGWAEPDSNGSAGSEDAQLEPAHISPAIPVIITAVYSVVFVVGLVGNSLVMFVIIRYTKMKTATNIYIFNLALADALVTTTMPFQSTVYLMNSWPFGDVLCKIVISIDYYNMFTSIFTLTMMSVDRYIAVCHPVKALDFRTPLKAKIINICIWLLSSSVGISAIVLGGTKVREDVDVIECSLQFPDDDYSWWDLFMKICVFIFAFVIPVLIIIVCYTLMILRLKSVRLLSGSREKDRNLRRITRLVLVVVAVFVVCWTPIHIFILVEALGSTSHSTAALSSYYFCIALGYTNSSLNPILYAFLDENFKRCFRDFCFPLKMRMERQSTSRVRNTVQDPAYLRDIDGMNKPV
measure name: EC50 (nM)
Could you give me the number in nM? Just the number is fine.

As a guide, the following entries are already answered.
compound="Oc1ccc2c(c1)[C@@]13CCN(CCc4ccccn4)CC[C@@]1(O)[C@@H](C2)N(CC1CCC1)CC3 [Example 162]" unit_text=nM value_reported=0.39
compound="Cc1cc2c(cc1O)[C@@]13CCN(C(=O)Cn4cc(C(F)(F)F)cn4)CC[C@@]1(O)[C@@H](C2)N(CC1CC1)CC3 [Example 329]" unit_text=nM value_reported=0.084
compound="Cn1nc(CCN2CC[C@]34CCN(CC5CC5)[C@H](Cc5ccc(O)cc53)[C@]4(O)CC2)c2ccccc21 [Example 113]" unit_text=nM value_reported=0.56

Record Cc1cc(CCC(=O)N2CC[C@]34CCN(CC5CC5)[C@H](Cc5ccc(O)cc53)[C@]4(O)CC2)ns1 [Example 217] , field EC50: 0.18

Record Cc1cc(CCN2CC[C@]34CCN(CC5CC5)[C@H](Cc5ccc(O)cc53)[C@]4(O)CC2)ns1 [Example 177] , field EC50: 0.019

Record O=C(Cc1ccccn1)N1CC[C@]23CCN(CC4CC4)[C@H](Cc4ccc(O)cc42)[C@]3(O)CC1 [Example 22] , field EC50: 0.13

Record Cn1nc(CC(=O)N2CC[C@]34CCN(CC5CC5)[C@H](Cc5ccc(O)cc53)[C@]4(O)CC2)cc1C(F)(F)F [Example 36] , field EC50: 0.025

Record O=C(Cc1cc2ccccn2n1)N1CC[C@]23CCN(CC4CC4)[C@H](Cc4ccc(O)cc42)[C@]3(O)CC1 [Example 117] , field EC50: 0.4

src = patent US20230087342A1
